# System: cocklebur (Xanthium strumarium)
# Test Details: Test B postemergence
# Type: in vivo
# Settings: Rate 500 g/ha, scale 0 to 100, 0 is no effect, 100 is complete control, 13 to 15 days
Field: Plant response rating, Cocklebur. Provide a value for each of the compounds that follow.
Give bare numbers.

Recorded Plant response rating, Cocklebur, per entry:
| Compound | Study Target | Plant response rating, Cocklebur |
| --- | --- | --- |
| CC(C)(C)c1ccn(C2CCN(c3cccc(Cl)c3)C2=O)n1 (stereo not shown) | cocklebur (Xanthium strumarium) | 0 |
| CSc1cccc(N2CCC(n3ccc(C(C)(C)C)n3)C2=O)c1 (stereo not shown) | cocklebur (Xanthium strumarium) | 0 |
| O=C1C(n2cc(Cl)c(C3CC3)n2)CCN1c1cccc(C(F)(F)F)c1 (stereo not shown) | cocklebur (Xanthium strumarium) | 0 |
| CCCOc1cc(N2CCC(n3ccc(C(C)(C)C)n3)C2=O)ccc1C (stereo not shown) | cocklebur (Xanthium strumarium) | 100 |
| CC(C)(C)c1ccn(C2CCN(c3ccc(F)c(Br)c3)C2=O)n1 (stereo not shown) | cocklebur (Xanthium strumarium) | 0 |
| CCCCC(CCCC)c1ccn(C2SCN(c3cccc(C(F)(F)F)c3)C2=O)n1 (stereo not shown) | cocklebur (Xanthium strumarium) | 50 |
| CCC(CC)c1ccn(C2OCN(c3cccc(OC(F)F)c3)C2=O)n1 (stereo not shown) | cocklebur (Xanthium strumarium) | 70 |
| COc1cc(N2CCC(n3ccc(C(C)C)n3)C2=O)ccc1Cl (stereo not shown) | cocklebur (Xanthium strumarium) | 100 |
| COc1ccn(C2CCN(c3cccc(C(F)(F)F)c3)C2=O)n1 (stereo not shown) | cocklebur (Xanthium strumarium) | 0 |
| CC(C)(C)c1ccn(C2C(=O)N(c3cccc(C(F)(F)F)c3)C[S+]2[O-])n1 (stereo not shown) | cocklebur (Xanthium strumarium) | 0 |

// each listed compound needs a value for Plant response rating, Cocklebur
1. CCCOC(=O)c1cccc(N2CCC(n3ccc(C(C)(C)C)n3)C2=O)c1 (stereo not shown)
2. Cc1c(F)cc(N2CCC(n3ccc(C(C)(C)C)n3)C2=O)cc1Br (stereo not shown)
3. CCC(CC)c1ccn(C2CCN(c3ccc(C)c(OC)c3)C2=O)n1 (stereo not shown)
4. CCOC(=O)c1cccc(N2CCC(n3ccc(C(C)(C)C)n3)C2=O)c1 (stereo not shown)
5. CC(C)(C)c1ccn(C2CCN(c3cccc(C(F)(F)F)c3)C2=O)n1 (stereo not shown)
6. Cc1cccc(N2CCC(n3ccc(C(C)(C)C)n3)C2=O)c1 (stereo not shown)
7. COc1cccc(N2CCC(n3ccc(C(C)(C)C)n3)C2=O)c1 (stereo not shown)

Ans:
80
20
100
90
30
0
0

Quick request: Plant response rating, Cocklebur for each listed item, please.
1. CCCCC(CCCC)c1ccn(C2OCN(c3cccc(C(F)(F)F)c3)C2=O)n1 (stereo not shown)
2. Cc1ccn(C2CCN(c3cccc(C(F)(F)F)c3)C2=O)n1 (stereo not shown)

Ans:
1: 60; 2: 0

* * *

# System: barnyardgrass (Echinochloa crus-galli)
# Test Details: Test C flooded paddy test
# Assay type: in vivo
# Settings: Flooded Paddy; Rate 250 g/ha; scale 0 to 100, 0 no effect, 100 complete control
Give measured Barnyardgrass plant response rating for each item. Keep answers brief.
Numbers only.

Sample answers from the record:
| Compound | Recorded Endpoint | Reported Result |
| --- | --- | --- |
| Cc1ccc(N2CCC(n3ccc(C(C)(C)C)n3)C2=O)cc1OCCI (stereo not drawn) | Barnyardgrass plant response rating | 0 |
| CC1(c2ccn(C3OCN(c4cccc(OC(F)(F)F)c4)C3=O)n2)CC1 (stereo not drawn) | Barnyardgrass plant response rating | 100 |
| CCC(C)c1ccn(C2SCN(c3cccc(OC(F)(F)F)c3)C2=O)n1 (stereo not drawn) | Barnyardgrass plant response rating | 100 |

Dear colleague, could you please provide Barnyardgrass plant response rating for the compounds listed below?
1. Cc1cc(N2CCC(n3ccc(C(C)(C)C)n3)C2=O)cc(Br)c1C (stereo not drawn)
2. O=C1C(n2ccc(C3CCCCC3)n2)SCN1c1cccc(C(F)(F)F)c1 (stereo not drawn)
3. O=C1C(n2ccc(C3CCC3)n2)SCN1c1cccc(C(F)(F)F)c1 (stereo not drawn)

Ans:
1: 0; 2: 70; 3: 100
